Experiment: Worst-case calculation, Application 2 cheese packaging wrap exposure scenario
Conditions: product SBDEV1285; 100% migration; 2.0 g/m^2 dry film
Where a name gives a salt, the structure may show the parent alone.
Assay endpoint: Worst-case calculation as a percentage of SML (or restriction), Application 2

Examples with their reported Worst-case calculation as a percentage of SML (or restriction), Application 2 follow.
CCCCOC(=O)CC(O)(CC(=O)OCCCC)C(=O)OCCCC [0000077-94-1, Tributyl citrate]	76.01 percentage of SML (or restriction)
CCCCCCCC/C=C\CCCCCCCC(=O)OCC [0000111-62-6, Ethyl Oleate]	32.68 percentage of SML (or restriction)
O=C1NCCN1	17.3 percentage of SML (or restriction)

Next, consider the following compound.
Prompt line: Look up and state reported Worst-case calculation as a percentage of SML (or restriction), Application 2 for c1ccc(-c2ccc(-c3nc(-c4ccc(-c5ccccc5)cc4)nc(-c4ccc(-c5ccccc5)cc4)n3)cc2)cc1
Response line: 0.4 percentage of SML (or restriction)

* * *

Assay: Worst-case calculation (100% migration), standard EU Cube exposure model
Conditions: substance in ink SBDEV977 (Ex. 4A Yellow); 100% migration, dry coat weight 2.0 g/m^2
Where a name gives a salt, the structure may show the parent alone.
Parameter Worst Case Calculation of migration in EU Cube model (as a percentage of SML): see the listing below.

Example entries and their recorded answers appear below.
CCCCCCCC/C=C\CCCCCCCC(=O)OCC [0000111-62-6, Ethyl Oleate]	24 percentage of SML
O=C1NC(=O)c2ccccc21 [0000085-41-6, Phthalimide]	960 percentage of SML
CCCCCCCC/C=C\CCCCCCCC(=O)N(CCO)CCO [0000093-83-4, N,N-Bis(2-hydroxyethyl) oleamide]	69 percentage of SML
CCCCOC(=O)CC(O)(CC(=O)OCCCC)C(=O)OCCCC [0000077-94-1, Tributyl citrate]	53.2 percentage of SML
CCCC1OC(CCC)OC(CCC)O1 (stereo not drawn)	67 percentage of SML

Prompt line: Give a short answer stating reported Worst Case Calculation of migration in EU Cube model (as a percentage of SML) for O=C1NCCN1 .
Response line: 15 percentage of SML

* * *

Assay: Worst-case calculation, Application 1 yoghurt pot lid exposure scenario
Settings: product SBDEV1287; 100% migration; 2.0 g/m^2 dry film
Where a name gives a salt, the structure may show the parent alone.
Catalogue of Worst-case calculation as a percentage of SML (or restriction), Application 1 values

Please review the following examples before continuing.
CCCCOC(=O)CC(O)(CC(=O)OCCCC)C(=O)OCCCC [0000077-94-1, Tributyl citrate]	20.73 percentage of SML (or restriction)
O=C1NC(=O)c2ccccc21 [0000085-41-6, Phthalimide]	373.7 percentage of SML (or restriction)
O=C1NCCN1	4.3 percentage of SML (or restriction)
CCCC1OC(CCC)OC(CCC)O1 (stereo not drawn)	26.7 percentage of SML (or restriction)
CCCCCCCC/C=C\CCCCCCCC(=O)N(CCO)CCO [0000093-83-4, N,N-Bis(2-hydroxyethyl) oleamide]	26.7 percentage of SML (or restriction)

Please look at the following molecule next.
Prompt line: For CCCCCCCC/C=C\CCCCCCCC(=O)OCC [0000111-62-6, Ethyl Oleate] , write its Worst-case calculation as a percentage of SML (or restriction), Application 1.
Response line: 8.91 percentage of SML (or restriction)
